- Test system: stapylococcus aureus
Item-by-item account of MIC
Please make sure the unit comes right after the number.

Consider the reported MIC for these compounds:
In [3]: df
Out[3]:
                                chem_smiles  measurement_name  measured_result
0    O=C(COC(=O)Nc1cccc(Cl)c1)Nc1ccc(Cl)cc1               MIC          5 µg/mL
1  O=C(COC(=O)Nc1cccc(Br)c1)Nc1ccc(Cl)c(Cl)c1               MIC        0.5 µg/mL
2  O=C(COC(=O)Nc1ccc(Cl)c(Cl)c1)Nc1ccc(Cl)c(Cl)c1               MIC          1 µg/mL
3  O=C(COC(=O)Nc1ccc(Cl)c(Cl)c1)Nc1ccc(Cl)cc1               MIC          1 µg/mL
4  O=C(COC(=O)Nc1ccc(Cl)cc1)Nc1ccc(Cl)c(Cl)c1               MIC       0.25 µg/mL

Consider the compound shown here: O=C(COC(=O)Nc1cccc(Cl)c1)Nc1ccc(Cl)c(Cl)c1 What is its recorded MIC? 0.25 µg/mL
